# testSummary: In vivo brain tissue distribution test after oral administration
# assayConditions: Hsd:ICR(CD-1R); Brain (25 mg/kg, PO), mouse; read-out: t1/2, Mean (converted)

smilesEntry	valueUnit	half-life
CC(C)(C)c1ccc(-c2cc(/C=C3\SC(=O)NC3=O)ccn2)cc1	h	2.83

###

# testSummary: In vivo PK test, drug concentration in plasma after oral or intravenous administration
# assayConditions: CRljOri:CD1(ICR), mouse, plasma, iv, 5 mg/kg, intravenous 5 mg/kg, 1 hr, read-out: Drug concentration in plasma, Individual
quantity: concentration at 1 h

smilesEntry	quantity	recordedResult
CC(C)(C)c1ccc(-c2cc(/C=C3\SC(=O)NC3=O)ccn2)cc1	concentration at 1 h	2590 ng/mL

###

# testSummary: In vivo PK test, drug concentration in plasma after oral or intravenous administration
# assayConditions: CRljOri:CD1(ICR), mouse, plasma, iv, 5 mg/kg, intravenous 5 mg/kg, 2 hr, read-out: Drug concentration in plasma, Individual
quantity: concentration at 2 hr (µg/mL)

smilesEntry	valueUnit	recordedResult
CC(C)(C)c1ccc(-c2cc(/C=C3\SC(=O)NC3=O)ccn2)cc1	µg/mL	1.13

###

# testSummary: In vivo PK test, drug concentration in plasma after oral or intravenous administration
# assayConditions: CRljOri:CD1(ICR), mouse, plasma, po, 25 mg/kg, oral 25 mg/kg, 8 hr, read-out: Drug concentration in plasma, Average
# Description: • Experimental Drug: Compound 11 • Excipient: 10% DMSO, 75% PEG400, 15% saline 1.2. Experimental system • mouse, CRljOri:CD1(ICR), SPF 6 weeks old (7 weeks old at the time of administration) 1.3. […] 580 μl of acetonitrile (including internal standard) was added to 20 μl of plasma/tissue, and centrifugation was performed at 4° C. at 15,000 rpm for 5 minutes with vortexing. A supernatant obtained after the centrifugation was analyzed with LC-MS/MS. […]
quantity: concentration at 8 h (ng/mL)

smilesEntry	recordedResult
CC(C)(C)c1ccc(-c2cc(/C=C3\SC(=O)NC3=O)ccn2)cc1	5020

###

# testSummary: In vivo PK test, drug concentration in plasma after oral or intravenous administration
# assayConditions: CRljOri:CD1(ICR), mouse, plasma, iv, 5 mg/kg, intravenous 5 mg/kg, 8 hr, read-out: Drug concentration in plasma, Individual

smilesEntry	concentration at 8 h [ng/mL]
CC(C)(C)c1ccc(-c2cc(/C=C3\SC(=O)NC3=O)ccn2)cc1	424

###

# testSummary: In vivo brain tissue distribution test after oral administration
# assayConditions: Hsd:ICR(CD-1R); Brain (25 mg/kg, PO), mouse; read-out: AUCinf, Mean

compound	valueUnit	AUC(0-inf)
CC(C)(C)c1ccc(-c2cc(/C=C3\SC(=O)NC3=O)ccn2)cc1 [Compound 11]	ng·h/mL	96800

###

# testSummary: In vivo PK test, drug concentration in plasma after oral or intravenous administration
# assayConditions: CRljOri:CD1(ICR), mouse, plasma, iv, 5 mg/kg, intravenous 5 mg/kg, 1 hr, read-out: Drug concentration in plasma, Average
quantity: concentration at 1 h (ng/mL)

smilesEntry	recordedResult
CC(C)(C)c1ccc(-c2cc(/C=C3\SC(=O)NC3=O)ccn2)cc1	2100

###

# testSummary: In vivo PK test, drug concentration in plasma after oral or intravenous administration
# assayConditions: CRljOri:CD1(ICR), mouse, plasma, po, 25 mg/kg, oral 25 mg/kg, 24 hr, BQL = <1 ng/ml, read-out: Drug concentration in plasma, Individual

smilesEntry	concentration at 24 h (ng/mL)
CC(C)(C)c1ccc(-c2cc(/C=C3\SC(=O)NC3=O)ccn2)cc1	4.1
